Test: qHTS assay for cell viability of HEK293 cells (AID 743288); note: % is set by controls: 0 for no effect and ±100 for the full control effect; nearly all actives have a fitted effect of over 50% in size
Details: ATP luminescence (CellTiter-Glo), 18 h; stronger effect = lower value
Inconclusive results are not listed.
measurementLabel: max response (%)
Express your answer in %, writing the number without its unit.

Please review the entries below; each comes with its answer.
compound	measurementLabel	measured
CC(C)(C)OOC(C)(C)c1ccc(C(C)(C)OOC(C)(C)C)cc1	max response	-8.57
CNC(=S)S	max response	-18
O=C(O)C(F)(F)C(F)(F)C(F)(F)C(F)(F)C(F)(F)F	max response	-9.96

Entry "Oc1c(Br)c(Br)c(Br)c(Br)c1Br" has what max response?
-15.8

Entry "CCS(=O)(=O)c1cccnc1S(=O)(=O)NC(=O)Nc1nc(OC)cc(OC)n1" has what max response?
-6.2

Entry "CNC(=O)N(C)c1nc2ccccc2s1" has what max response?
-16.4

Entry "COC(=O)c1ccccc1S(=O)(=O)NC(=O)Nc1nc(C)nc(OC)n1" has what max response?
9.36

Entry "CNC(=O)O/N=C/C(C)(C)S(C)(=O)=O" has what max response?
0.485

###

Target: Muscarinic acetylcholine receptor M1 (Rattus norvegicus) (UniProt P08482)
Sequence (P08482 whole entry, looked up): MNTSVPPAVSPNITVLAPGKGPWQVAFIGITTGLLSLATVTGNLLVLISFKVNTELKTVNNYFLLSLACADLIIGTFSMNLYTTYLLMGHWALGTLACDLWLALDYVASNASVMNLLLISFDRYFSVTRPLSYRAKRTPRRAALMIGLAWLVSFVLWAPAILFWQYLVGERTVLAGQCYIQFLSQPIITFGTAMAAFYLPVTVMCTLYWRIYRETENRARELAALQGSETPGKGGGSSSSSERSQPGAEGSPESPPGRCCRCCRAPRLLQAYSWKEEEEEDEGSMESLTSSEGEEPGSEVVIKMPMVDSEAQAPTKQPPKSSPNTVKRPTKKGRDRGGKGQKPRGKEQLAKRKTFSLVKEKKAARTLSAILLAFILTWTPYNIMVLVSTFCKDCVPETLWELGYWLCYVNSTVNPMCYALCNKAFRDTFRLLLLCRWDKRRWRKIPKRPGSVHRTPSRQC
Assay: qHTS Assay for Antagonists of Acetylcholine Muscarinic M1 Receptor: Measurement of IP-One Response (AID 944); note: nearly all actives have a fitted effect of over 75% in size
Settings: CHO-M1 cells, IP-One HTRF, antagonist mode; series mostly up to 46.1 µM
Records with an inconclusive call do not appear. Activity calls are given as the source filed them. Calls follow the shape of the dose curve; as a rule, active = well fitted inhibition curve with a large enough effect; inconclusive = small, poorly fitted or top-dose-only effect; inactive = no such curve, though single readings can be large or run the other way.
Field 'call' accepts Y for active, N for inactive

compound	classLabel
CCN1C[C@]2(C)CC[C@@H](O)[C@]34[C@@H]5CC6[C@@H](OC)C[C@@](O)([C@H]5[C@@H]6O)[C@@H](C[C@@H]23)[C@H]14	N
CC(=O)O[C@@H]1[C@H]([N+]2(C)CCCCC2)C[C@@H]2[C@@H]3CC[C@@H]4C[C@@H](OC(C)=O)[C@H]([N+]5(C)CCCCC5)C[C@@]4(C)[C@H]3CC[C@]21C	Y
C[C@H](N)c1cccc(Cl)c1Cl	N
CC(C)(O)[C@H]1[C@H]2OC(=O)[C@@H]1[C@]1(O)C[C@H]3O[C@]34C(=O)O[C@H]2[C@]14C (tested in a mixture with another compound)	N

// return assay outcome for "Ic1ccccc1CN[C@@H]1C2CCN(CC2)[C@H]1C(c1ccccc1)c1ccccc1"
N

// return assay outcome for CN1[C@@H]2CC[C@H]1CC(O[C@@H](c1ccccc1)c1ccccc1N)C2 (stereo partly drawn)
Y

// return assay outcome for "C/C=C(\C)C(=O)O[C@@H]1C(C)=C2[C@H]([C@@H]1OC(=O)CCCCCCC)[C@@](C)(OC(C)=O)C[C@@H](OC(=O)CCC)[C@@]1(O)[C@H]2OC(=O)[C@]1(C)O"
N

// return assay outcome for "CCCN1CCC[C@H](c2cccc(C#N)c2)C1"
Y

###

Molecular target: Glucocorticoid receptor (Homo sapiens) (UniProt P04150)
Sequence (P04150 whole entry, looked up): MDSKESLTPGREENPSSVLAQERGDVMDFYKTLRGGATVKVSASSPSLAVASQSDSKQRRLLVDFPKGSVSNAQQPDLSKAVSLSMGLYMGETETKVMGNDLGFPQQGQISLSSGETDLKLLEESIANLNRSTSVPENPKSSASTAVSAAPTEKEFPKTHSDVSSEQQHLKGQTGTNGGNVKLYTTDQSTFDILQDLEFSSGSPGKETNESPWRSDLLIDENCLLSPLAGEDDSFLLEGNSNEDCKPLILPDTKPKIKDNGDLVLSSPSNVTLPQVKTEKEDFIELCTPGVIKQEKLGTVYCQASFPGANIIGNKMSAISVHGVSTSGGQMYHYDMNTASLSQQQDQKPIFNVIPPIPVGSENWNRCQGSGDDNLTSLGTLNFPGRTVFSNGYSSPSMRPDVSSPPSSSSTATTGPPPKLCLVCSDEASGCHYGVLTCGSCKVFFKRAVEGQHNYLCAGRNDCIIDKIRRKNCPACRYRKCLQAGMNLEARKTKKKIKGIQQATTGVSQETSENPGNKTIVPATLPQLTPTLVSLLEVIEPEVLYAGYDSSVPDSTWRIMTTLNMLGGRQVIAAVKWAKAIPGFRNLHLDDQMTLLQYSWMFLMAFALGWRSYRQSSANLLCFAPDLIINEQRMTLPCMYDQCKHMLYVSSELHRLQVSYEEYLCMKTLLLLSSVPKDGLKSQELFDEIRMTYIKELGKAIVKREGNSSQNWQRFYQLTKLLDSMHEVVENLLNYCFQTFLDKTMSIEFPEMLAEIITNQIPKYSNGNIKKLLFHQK
Experiment: GR-GFP Redistribution (AID 450); note: potency is the fitted concentration of half-maximal effect
Settings: U2OS GR-GFP nuclear translocation, laser cytometry, 2 h
Calls of active or inactive are those of the source.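 How the source made its calls: active means compounds whose dose series gives a full or clear partial fitted curve of increased nuclear translocation; inconclusive means weak partial curve or effect only at the top dose; inactive means no dose-dependent translocation response.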
measurementLabel: Potency

molecule	Potency
O=C(Nc1ccncc1)c1c(O)c2ccccc2n(Cc2ccccc2)c1=O	> 20.6 µM (inactive)

Entry "CCN(CC)c1ncnc2c1ncn2[C@@H]1O[C@@H](COP(=O)(O)OP(=O)(O)C(Br)(Br)P(=O)(O)O)[C@H](O)[C@H]1O" has what Potency?
> 46 µM (inactive)

Entry "O=c1[nH]c(=O)n(Cc2ccccc2)c(O)c1C=NCCN1CCNCC1" has what Potency?
> 20.6 µM (inactive)

Entry "CCN1C[C@@]2(C)CC[C@H](O)[C@@]34[C@@H]5C[C@H]6[C@H](O)[C@@H]5[C@](O)(C[C@@H]6OC)[C@H](C[C@@H]23)[C@H]14" has what Potency?
> 46 µM (inactive)
